Cited source for all entries: patent US20170189504A1

System: CD8+ T cells
Assay: In vitro immunogenicity: T-cell priming with aAPCs loaded with peptide/MHC complexes and anti-CD28 antibody, pMHC multimer readout (Tables 19A, 19B)
Type: cell-based, human
Settings: in vitro immunogenicity of HLA class I peptides, pMHC multimer readout after priming of CD8+ T cells
Recorded metric: Wells positive [%]

Solved cases below.
285 (HYPPVQVLF; listed as Homo sapiens) [compound 285]	+ (<20% = +)
229 (AILAHLNTV; listed as Homo sapiens) [compound 229]	++ (20%-49% = ++)
20 (GLSQITNQL; listed as Homo sapiens) [compound 20]	++ (20%-49% = ++)
29 (YLLDPSITL; listed as Homo sapiens) [compound 29]	+ (<20% = +)
151 (SVLDSTAKV; listed as Homo sapiens) [compound 151]	++ (20%-49% = ++)

Entry 249 (GLCERLVSL; listed as Homo sapiens) [compound 249] : reported Wells positive [%] = ?
+ (<20% = +)

Entry 233 (HLFDAFVSV; listed as Homo sapiens) [compound 233] : reported Wells positive [%] = ?
++ (20%-49% = ++)

Entry 197 (EYSLFPGQVVI; listed as Homo sapiens) [compound 197] : reported Wells positive [%] = ?
+ (<20% = +)

Entry 6 (ALFDSLRHV; listed as Homo sapiens) [compound 6] : reported Wells positive [%] = ?
++ (20%-49% = ++)

Entry 96 (LLVSHLYLV; listed as Homo sapiens) [compound 96] : reported Wells positive [%] = ?
++ (20%-49% = ++)

Entry 5 (GIVAHIQEV; listed as Homo sapiens) [compound 5] : reported Wells positive [%] = ?
+ (<20% = +)

Entry 1 (LLYPEPWSV; listed as Homo sapiens) [compound 1] : reported Wells positive [%] = ?
++ (20%-49% = ++)

Entry 160 (VYTLDIPVL; listed as Homo sapiens) [compound 160] : reported Wells positive [%] = ?
++ (20%-49% = ++)

Entry 204 (TYELRYFQI; listed as Homo sapiens) [compound 204] : reported Wells positive [%] = ?
+ (<20% = +)

Entry 247 (ALYEGYATV; listed as Homo sapiens) [compound 247] : reported Wells positive [%] = ?
++ (20%-49% = ++)

Entry 138 (ALLAKILQI; listed as Homo sapiens) [compound 138] : reported Wells positive [%] = ?
++ (20%-49% = ++)

Entry 218 (YYKSTSSAF; listed as Homo sapiens) [compound 218] : reported Wells positive [%] = ?
+ (<20% = +)

Entry 232 (KIFPAALQLV; listed as Homo sapiens) [compound 232] : reported Wells positive [%] = ?
++ (20%-49% = ++)

====

Test system: HLA-A*24
Assay: MHC binding assay, UV-ligand exchange with β2m ELISA, HLA-A*24 (Table 21)
Design: species or system human
Settings: binding to HLA-A*24 ranged by peptide exchange yield (UV-ligand exchange, β2m ELISA)
Recorded metric: Peptide exchange

223 (KYIPYKYVI; listed as Homo sapiens) [compound 223]	+++ (50%-75% = +++)
224 (QYLENLEKL; listed as Homo sapiens) [compound 224]	+++ (50%-75% = +++)
201 (IYATEAHVF; listed as Homo sapiens) [compound 201]	+++ (50%-75% = +++)

====

Test system: HLA-A*02
Assay: MHC binding assay, UV-ligand exchange with β2m ELISA, HLA-A*02 (Table 20)
Design: species or system human
Conditions: binding to HLA-A*02 ranged by peptide exchange yield (UV-ligand exchange, β2m ELISA)
Recorded metric: Peptide exchange

Solved cases below.
263 (VLLSEQGDVKL; listed as Homo sapiens) [compound 263]	++ (20%-49% = ++)
108 (ILLKNLVTI; listed as Homo sapiens) [compound 108]	++ (20%-49% = ++)
72 (FLTAINYLL; listed as Homo sapiens) [compound 72]	+++ (50%-75% = +++)
117 (KMPDVELFV; listed as Homo sapiens) [compound 117]	+++ (50%-75% = +++)
32 (VQLDSIEDLEV; listed as Homo sapiens) [compound 32]	+++ (50%-75% = +++)

Entry 79 (VTFKEYVTV; listed as Homo sapiens) [compound 79] : reported Peptide exchange = ?
++ (20%-49% = ++)

Entry 138 (ALLAKILQI; listed as Homo sapiens) [compound 138] : reported Peptide exchange = ?
+++ (50%-75% = +++)

Entry 124 (KVMATIEKV; listed as Homo sapiens) [compound 124] : reported Peptide exchange = ?
++ (20%-49% = ++)

====

Test system: HLA-A*02
Assay: MHC binding assay, UV-ligand exchange with β2m ELISA, HLA-A*02 (Table 20)
Parameters: species or system human
Conditions: binding to HLA-A*02 ranged by peptide exchange yield (UV-ligand exchange, β2m ELISA)
Recorded metric: Peptide exchange

Solved cases below.
238 (GLYERPTAA; listed as Homo sapiens) [compound 238]	++ (20%-49% = ++)
266 (YAIGLVMRL; listed as Homo sapiens) [compound 266]	+++ (50%-75% = +++)
21 (AIQDEIRSV; listed as Homo sapiens) [compound 21]	+++ (50%-75% = +++)
150 (VLYDRPLKI; listed as Homo sapiens) [compound 150]	+++ (50%-75% = +++)
87 (TIYKDFVYI; listed as Homo sapiens) [compound 87]	++ (20%-49% = ++)
77 (TLIDEQDIPLV; listed as Homo sapiens) [compound 77]	+++ (50%-75% = +++)

Entry 262 (FMVDKAIYL; listed as Homo sapiens) [compound 262] : reported Peptide exchange = ?
+++ (50%-75% = +++)

Entry 96 (LLVSHLYLV; listed as Homo sapiens) [compound 96] : reported Peptide exchange = ?
++ (20%-49% = ++)

====

Tested on: CD8+ T cells
Test: In vitro immunogenicity: T-cell priming with aAPCs loaded with peptide/MHC complexes and anti-CD28 antibody, pMHC multimer readout (Tables 19A, 19B)
Type: cell-based, human
Settings: in vitro immunogenicity of HLA class I peptides, pMHC multimer readout after priming of CD8+ T cells
Recorded metric: Wells positive [%]

23 (SLFSDEFKV; listed as Homo sapiens) [compound 23]	++++ (≧70% = ++++)
12 (GLLPLLHRA; listed as Homo sapiens) [compound 12]	++++ (≧70% = ++++)

====

Test system: HLA-A*24
Test: MHC binding assay, UV-ligand exchange with β2m ELISA, HLA-A*24 (Table 21)
Design: species or system human
Settings: binding to HLA-A*24 ranged by peptide exchange yield (UV-ligand exchange, β2m ELISA)
Recorded metric: Peptide exchange

Solved cases below.
179 (MYDSYWRQF; listed as Homo sapiens) [compound 179]	++++ (≧75% = ++++)
184 (VFQNFPLLF; listed as Homo sapiens) [compound 184]	++++ (≧75% = ++++)
162 (VFTRVSSFL; listed as Homo sapiens) [compound 162]	+++ (50%-75% = +++)
171 (LFIPSSKLLFL; listed as Homo sapiens) [compound 171]	+++ (50%-75% = +++)

Now look at this entry.
Entry 204 (TYELRYFQI; listed as Homo sapiens) [compound 204] : reported Peptide exchange = ?
++++ (≧75% = ++++)

====

Tested on: HLA-A*02
Assay: MHC binding assay, UV-ligand exchange with β2m ELISA, HLA-A*02 (Table 20)
Set-up: species or system human
Conditions: binding to HLA-A*02 ranged by peptide exchange yield (UV-ligand exchange, β2m ELISA)
Recorded metric: Peptide exchange

245 (SLLDLPLSL; listed as Homo sapiens) [compound 245]	++++ (≧75% = ++++)
142 (ILVEGISTV; listed as Homo sapiens) [compound 142]	+++ (50%-75% = +++)
18 (ILLDLTDNRL; listed as Homo sapiens) [compound 18]	+++ (50%-75% = +++)
3 (KLEENGDLYL; listed as Homo sapiens) [compound 3]	++++ (≧75% = ++++)
251 (ALSVLRLAL; listed as Homo sapiens) [compound 251]	+++ (50%-75% = +++)

Entry 130 (SLLGGTFVGI; listed as Homo sapiens) [compound 130] : reported Peptide exchange = ?
+++ (50%-75% = +++)

Entry 67 (TLLQRLTEV; listed as Homo sapiens) [compound 67] : reported Peptide exchange = ?
+++ (50%-75% = +++)

Entry 78 (TVVTRLDEI; listed as Homo sapiens) [compound 78] : reported Peptide exchange = ?
++ (20%-49% = ++)

Entry 45 (SLTEVSLPL; listed as Homo sapiens) [compound 45] : reported Peptide exchange = ?
+++ (50%-75% = +++)

Entry 70 (LLLGDSALYL; listed as Homo sapiens) [compound 70] : reported Peptide exchange = ?
+++ (50%-75% = +++)

Entry 244 (YLLEKNRVV; listed as Homo sapiens) [compound 244] : reported Peptide exchange = ?
++ (20%-49% = ++)
